Assay explanation: Primary redox qHTS assay for identification of artifact compounds. (AID 1845223);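 further: 0% = DMSO and 100% = reference compound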
Test parameters: Amplex Red/HRP redox cycling with DTT, fluorescence; series mostly up to 53.8 µM
Results filed as inconclusive are left out. Activity calls are given as the source filed them. The call rests on the fitted dose curve; in most records, active means well fitted activation curve with a large enough effect; inconclusive means small, poorly fitted or top-dose-only effect; inactive means flat fitted curve, though single readings scatter.
Experimental readout: redox activity (% of DA3003)

These recorded examples may help you get a feel for the data.
Molecule	Value reported
CC[N+]1(C/C2=C/CCCCCC2)CCC(NC(=O)C2c3cc(Cl)ccc3Oc3ccc(Cl)cc32)CC1 (configuration not stated)	inactive
CN1c2c(nc(N)[nH]c2=O)NC[C@@H]1CNc1ccc(C(=O)N[C@@H](CCC(=O)O)C(=O)O)cc1	inactive
O=S(=O)(c1ccc(Cl)cc1)N1CCN(c2ccnc3cc(Cl)ccc23)CC1	inactive
O=C(C(Cc1cccc(C(F)(F)F)c1)NS(=O)(=O)c1cc(F)c2c(c1)CCNC2)N1CCCC1 (configuration not stated)	inactive
O=C(NCCN1CCOCC1)c1cc2c(Oc3ccc(NC(=O)C4(C(=O)Nc5ccc(F)cc5)CC4)cc3)ccnc2[nH]1	inactive

Enquiry: Fill blank: measured redox activity (% of DA3003) of the molecule C/C1=C/CCC2=CC(OC2=O)C(C)(C)/C=C/C1=O (configuration not stated) is ____.
Return: inactive

Enquiry: Fill blank: measured redox activity (% of DA3003) of the molecule c1cc(NC2CCNCC2)nc(-c2cnc3ccccn23)c1 is ____.
Return: inactive

Enquiry: Fill blank: measured redox activity (% of DA3003) of the molecule Cn1cc(-c2ccc(F)c(C(F)(F)F)c2)nc1C1CCN(c2ncnc3[nH]ncc23)CC1 is ____.
Return: inactive

Enquiry: Fill blank: measured redox activity (% of DA3003) of the molecule Nc1nc2c(nc(Br)n2[C@@H]2O[C@@H]3COP(=O)(O)O[C@H]3[C@H]2O)c(=O)[nH]1 is ____.
Return: inactive

Enquiry: Fill blank: measured redox activity (% of DA3003) of the molecule C/C=C(/C)C(=O)O[C@H]1[C@H](OC(=O)/C(C)=C\C)[C@@]23C(CC1(C)C)[C@]1(CCC4[C@@]5(C)CC[C@H](O[C@@H]6O[C@H](C(=O)O)[C@@H](O)[C@H](O[C@@H]7O[C@H](CO)[C@H](O)[C@H](O)[C@H]7O[C@@H]7O[C@@H](C)[C@H](O)[C@@H](O)[C@H]7O[C@@H]7OC[C@@H](O)[C@H](O)[C@H]7O)[C@H]6O[C@@H]6O[C@H](CO)[C@H](O)[C@H](O)[C@H]6O)C(C)(C)C5CC[C@@]4(C)[C@]1(C)C[C@H]2O)O[C@H]3O (some centres not stated) is ____.
Return: 13% [at 11.5 µM] (inactive)

Enquiry: Fill blank: measured redox activity (% of DA3003) of the molecule O=C(NCCCc1ccccc1)C1CCC(CNS(=O)(=O)c2cccc3nsnc23)CC1 (configuration not stated) is ____.
Return: inactive

Enquiry: Fill blank: measured redox activity (% of DA3003) of the molecule CCS(=O)c1nc(-c2cccc(OCc3ccccc3)c2)cc(C(F)(F)F)n1 (configuration not stated) is ____.
Return: inactive

Enquiry: Fill blank: measured redox activity (% of DA3003) of the molecule O=S(=O)(NCc1ccccn1)c1ccc(Br)c2ccccc12 is ____.
Return: inactive

Enquiry: Fill blank: measured redox activity (% of DA3003) of the molecule Cc1cn2cc(C(=O)N(C)CCO)cc(NC3CCOc4cccc(C)c43)c2n1 (configuration not stated) is ____.
Return: inactive

Enquiry: Fill blank: measured redox activity (% of DA3003) of the molecule CC(C)C[C@@H](N)C(=O)N[C@H]1C(=O)N[C@@H](CC(N)=O)C(=O)N[C@H]2C(=O)N[C@H]3C(=O)N[C@H](C(=O)N[C@H](C(=O)O)c4cc(O)cc(O)c4-c4cc3ccc4O)[C@H](O)c3ccc(c(Cl)c3)Oc3cc2cc(c3O[C@@H]2O[C@H](CO)[C@@H](O)[C@H](O)[C@H]2O[C@H]2C[C@](C)(N)[C@H](O)[C@H](C)O2)Oc2ccc(cc2Cl)[C@H]1O is ____.
Return: inactive

Enquiry: Fill blank: measured redox activity (% of DA3003) of the molecule CN(C)C(=O)Nc1cc(-c2ccccc2)ccc1N(C)C is ____.
Return: inactive

Enquiry: Fill blank: measured redox activity (% of DA3003) of the molecule O=C(Nc1ccc(N2C(=O)[C@@H]3[C@H](C2=O)[C@@H]2C=C[C@H]3C2)c(Cl)c1)c1ccccn1 is ____.
Return: inactive

Enquiry: Fill blank: measured redox activity (% of DA3003) of the molecule CC1(C)C2CCC(CO[C@@H]3O[C@H](CO[C@@H]4OC[C@](O)(CO)[C@H]4O)[C@@H](O)[C@H](O)[C@H]3O)C1C2 (some centres not stated) is ____.
Return: inactive

Enquiry: Fill blank: measured redox activity (% of DA3003) of the molecule CCN(CC)C(=O)C(c1ccccc1)N1CCN(c2ccc(NC(=O)c3ccccc3-c3cccnc3)cc2F)CC1 (configuration not stated) is ____.
Return: inactive

Enquiry: Fill blank: measured redox activity (% of DA3003) of the molecule CC[C@@H]1C[C@]1(NC(=O)[C@@H]1C[C@@H]2CN1C(=O)[C@H](C(C)(C)C)NC(=O)OCC(C)(C)CCCCc1cccc3c1CN(C3)C(=O)O2)C(=O)NS(=O)(=O)C1CC1 is ____.
Return: inactive

Enquiry: Fill blank: measured redox activity (% of DA3003) of the molecule NS(=O)(=O)c1ccc(NC(=O)Nc2ccc(F)cc2)cc1 is ____.
Return: inactive

Enquiry: Fill blank: measured redox activity (% of DA3003) of the molecule CCc1cnc(N2CCC(c3nc(COc4ccc(-n5cnnn5)cc4)cs3)CC2)nc1 is ____.
Return: inactive

====

Tested on: Es-2
Assay explanation: Primary qHTS to identify gynecologic anti-cancer compounds using libraries of approved drugs and bioactive compounds (AID 1345084); further: nearly all actives have a fitted effect of over 55% in size
Test parameters: Gynecologic cancer cell panel viability, ATPlite luminescence, 48 h; series mostly up to 57.5 µM
Records with an inconclusive call do not appear. Calls of active or inactive are those of the source. Calls follow the shape of the dose curve; as a rule, active = well fitted cell-killing curve with a large enough effect; inconclusive = small, poorly fitted or top-dose-only effect, or effect the other way; inactive = flat fitted curve, though single readings scatter.
Thanks in advance; please answer with one of these: true (1) (active), false (0) (inactive)

See these solved cases before continuing.
>>> print(df.to_string())
                                   compound  label_class
0  CCN1CCN(Cc2ccc(NC(=O)c3ccc(C)c(Oc4ccnc5[nH]ccc45)c3)cc2C(F)(F)F)CC1    false (0)
1            Cc1cccc(C#Cc2cc(F)cc(C#N)c2)n1    false (0)
2  COc1cc(N2CCC(N)CC2)ccc1Nc1ncc(Cl)c(-c2c[nH]c3ccccc23)n1    false (0)

Enquiry: Would you mind telling me which call this test gave CCC(CC)C(=O)OC12C(OC(=O)C(C)C)C(C)C3(O)C(C=C(CO)CC4(O)C(=O)C(C)=CC43)C1C2(C)C (stereo not drawn) ?
Return: true (1)

====

Tested on: Tov-21-G
Assay explanation: Primary qHTS to identify gynecologic anti-cancer compounds using libraries of approved drugs and bioactive compounds (AID 1345084); further: nearly all actives have a fitted effect of over 55% in size
Test parameters: Gynecologic cancer cell panel viability, ATPlite luminescence, 48 h; series mostly up to 57.5 µM
Inconclusive results are not listed. Active and inactive are the calls of the source. Calls come from the whole dose curve; as a rule, active = well fitted cell-killing curve with a large enough effect; inconclusive = small, poorly fitted or top-dose-only effect, or effect the other way; inactive = flat fitted curve, though single readings scatter.
Thanks in advance; please answer with one of these: Yes for active, No for inactive

See these solved cases before continuing.
>>> print(df.to_string())
                            chemical_string  assayed_system  label_class
0  CNc1cccc(CCOc2ccc3c(c2)CN(CC(F)(F)F)C(=O)[C@H](CC(=O)O)C3)n1        Tov-21-G          Yes
1  O=C(NCCN1CCC(n2c(=O)[nH]c3ccccc32)CC1)c1cc2cc(F)ccc2[nH]1        Tov-21-G           No
2  CNCCN1CCC(c2cc(CN(C)C(=O)c3cccc(Oc4ccccc4)c3)ccn2)CC1        Tov-21-G           No
3  Cn1ncc2cc(-c3cnc(N)c(Cl)c3N3CCC4(CCNC4=O)CC3)ccc21        Tov-21-G           No
4  C[C@@H](NC(=O)C(=O)c1c[nH]c2ccc([N+](=O)[O-])cc12)c1ccccc1        Tov-21-G           No

Next:
Enquiry: Would you mind telling me which call this test gave O=C(NCCN1CCN(c2cccc3c2OCCO3)CC1)c1ccc(F)cc1 ?
Return: No

====

Tested on: OV90
Assay explanation: Primary qHTS to identify gynecologic anti-cancer compounds using libraries of approved drugs and bioactive compounds (AID 1345084); further: nearly all actives have a fitted effect of over 55% in size
Test parameters: Gynecologic cancer cell panel viability, ATPlite luminescence, 48 h; series mostly up to 57.5 µM
Results filed as inconclusive are left out. Active and inactive are the calls of the source. Calls come from the whole dose curve; as a rule, active = well fitted cell-killing curve with a large enough effect; inconclusive = small, poorly fitted or top-dose-only effect, or effect the other way; inactive = flat fitted curve, though single readings scatter.
Thanks in advance; please answer with one of these: YES (active), NO (inactive)

See these solved cases before continuing.
Molecule	Label class
CC(C)(O)c1ccn2c(-c3ccc(F)c(-c4ccc(F)cc4C#N)c3)cnc2c1F	NO
O=S(=O)(Nc1cc(Cl)c(Oc2cnc3ccccc3c2)c(Cl)c1)c1ccc(Cl)cc1Cl	NO
CC[C@H]1OC(=O)[C@H](C)[C@@H](O[C@H]2C[C@@](C)(OC)[C@@H](O)[C@H](C)O2)[C@H](C)[C@@H](O[C@H]2O[C@H](C)C[C@H](N(C)C)[C@H]2O)[C@](C)(O)C[C@@H](C)C(=O)[C@H](C)[C@@H](O)[C@]1(C)O	NO
Oc1cccc(C2NC(=S)Nc3cccc(F)c32)c1 (centres undefined)	NO
CC(=O)[C@H]1CC[C@H]2[C@@H]3CC=C4C[C@@H](OS(=O)(=O)O)CC[C@]4(C)[C@H]3CC[C@]12C	NO
C=C1C(=O)O[C@H]2CC(=C)[C@H]3CC[C@@](C)(O)[C@@H]3CC12 (some centres undefined)	NO

Enquiry: Would you mind telling me which call this test gave COC(=O)N1CCC(n2ncc3c(N4CCOCC4)nc(-c4ccc(NC(=O)NC5CC5)cc4)nc32)CC1 ?
Return: YES

Enquiry: Would you mind telling me which call this test gave CCC(C)/C=C(C)/C=C/C1=CC2=CC(=O)C3(C)OC(C)(O)C(C(=O)OC)C3C2=CO1 (centres undefined) ?
Return: NO

Enquiry: Would you mind telling me which call this test gave CC(C)(C)c1ccc(C(=O)Nc2cc(Cl)c(Br)cc2C(=O)O)cc1 ?
Return: NO
